System tested: Cannabinoid receptor 1 (Homo sapiens, UniProt P21554)
Sequence (P21554 whole entry): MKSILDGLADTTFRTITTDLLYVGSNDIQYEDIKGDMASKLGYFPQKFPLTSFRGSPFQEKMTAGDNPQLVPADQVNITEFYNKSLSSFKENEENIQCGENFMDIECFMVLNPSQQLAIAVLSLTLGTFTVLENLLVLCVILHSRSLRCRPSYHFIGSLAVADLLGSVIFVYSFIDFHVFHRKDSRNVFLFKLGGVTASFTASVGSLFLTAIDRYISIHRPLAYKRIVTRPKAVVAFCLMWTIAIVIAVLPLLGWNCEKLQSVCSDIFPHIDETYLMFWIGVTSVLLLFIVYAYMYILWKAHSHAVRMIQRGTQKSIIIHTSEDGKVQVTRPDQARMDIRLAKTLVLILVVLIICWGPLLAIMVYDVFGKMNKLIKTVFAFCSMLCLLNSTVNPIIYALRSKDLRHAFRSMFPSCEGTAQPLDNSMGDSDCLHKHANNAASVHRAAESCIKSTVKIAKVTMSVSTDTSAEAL
Measurement protocol: Allosteric antagonist activity at human CB1 receptor expressed in CHO-RD-HGA16 cells overexpressing Galpha16 assessed as inhibition of CP55940-stimulated calcium mobilization preincubated for 15 mins followed by agonist addition and measured every 1 sec for 90 secs by Calcium-3 dye based FLIPR assay
Type: functional, cell-based
Readout type: IC50 (µM)
Give the number; µM is assumed, so skip it.

Some molecules with recorded IC50:
>  <Smiles structure>
O=C(NCCc1ccc(N2CCCCC2)cc1)Nc1ccc(Cl)cc1

>  <IC50 (µM)>
0.794

$$$$
>  <Smiles structure>
CN(C)c1ccc(CCNC(=O)Nc2ccc(Cl)cc2)cc1

>  <IC50 (µM)>
0.251

$$$$

IC50 for O=C(NCCc1ccccn1)Nc1ccc(Cl)cc1 ?
3.98

###

System tested: Cannabinoid receptor 1 (Homo sapiens, UniProt P21554)
Measurement protocol: Agonist activity at human CB1 receptor expressed in CHO-RD-HGA16 cells overexpressing Galpha16 assessed as stimulation of calcium mobilization measured every 1 sec for 90 secs by Calcium-3 dye based FLIPR assay relative to Emax of CP55940
Format: functional, cell-based
Cond: time 90.0 sec
Readout type: Activity

Please review the entries below; each comes with its answer.
>  <Compound>
O=C(NC[C@H]1C[C@@H]1c1ccccc1)Nc1ccc(Cl)cc1 (relative stereo)

>  <Activity>
< 30%

$$$$
>  <Compound>
O=C(NCCN1CCOCC1)Nc1ccc(Cl)cc1

>  <Activity>
< 30%

$$$$
>  <Compound>
O=C(NCCN1CCCCC1)Nc1ccc(Cl)cc1

>  <Activity>
< 30%

$$$$

Turning now to a further record.
Entry CC(C)(Cc1ccccc1)NC(=O)Nc1ccc(Cl)cc1 , system Cannabinoid receptor 1 (Homo sapiens, UniProt P21554): what Activity was measured?
< 30%

###

System tested: Cannabinoid receptor 1 (Homo sapiens, UniProt P21554)
Measurement protocol: biochemical
Description: Allosteric antagonist activity at human CB1 receptor expressed in HEK293 cell membrane assessed as inhibition of CP55940-stimulated [35S]GTPgammaS binding incubated for 60 mins by [35S]GTP-gammaS binding assay
Readout type: IC50
Dear colleague, please send the value followed by its unit.

Worked examples, 4 compounds total:
>  <Smiles structure>
O=C(NCCc1ccccc1)Nc1ccc(Cl)cc1

>  <IC50>
6.31 µM

$$$$
>  <Smiles structure>
CCc1c(C(=O)NCCc2ccc(N3CCCCC3)cc2)[nH]c2ccc(Cl)cc12

>  <IC50>
1 µM

$$$$
>  <Smiles structure>
CN(C)c1ccc(CCNC(=O)Nc2ccc(Cl)cc2)cc1

>  <IC50>
15.8 µM

$$$$
>  <Smiles structure>
O=C(NCCc1ccc(N2CCCC2)cc1)Nc1ccc(Cl)cc1

>  <IC50>
39.8 µM

$$$$

Now look at this one.
Item: O=C(NCCc1ccc(N2CCCCC2)cc1)Nc1ccc(Cl)cc1 Test system: Cannabinoid receptor 1 (Homo sapiens, UniProt P21554) Read-out: IC50 Value: ?
1.26 µM

###

System tested: Cannabinoid receptor 1 (Homo sapiens)
Measurement protocol: Allosteric antagonist activity at human CB1 receptor expressed in CHO-RD-HGA16 cells overexpressing Galpha16 assessed as inhibition of CP55940-stimulated calcium mobilization preincubated for 15 mins followed by agonist addition and measured every 1 sec for 90 secs by Calcium-3 dye based FLIPR assay
Format: functional, cell-based
Readout type: IC50 (nM)
Only the number, expressed in nM, is required.

>  <Smiles structure>
O=C(NCC1(c2ccccc2)CC1)Nc1ccc(Cl)cc1

>  <Observed>
5010

$$$$
>  <Smiles structure>
CCc1c(C(=O)NCCc2ccc(N3CCCCC3)cc2)[nH]c2ccc(Cl)cc12

>  <Observed>
794

$$$$
>  <Smiles structure>
CC(=O)NCCNC(=O)Nc1ccc(Cl)cc1

>  <Observed>
1580

$$$$
>  <Smiles structure>
CCN(CC)c1ccc(CCNC(=O)Nc2ccc(Cl)cc2)cc1

>  <Observed>
3160

$$$$

Form field: IC50 recorded for O=C(NCCc1ccc(N2CCCC2)cc1)Nc1ccc(Cl)cc1 with Cannabinoid receptor 1 (Homo sapiens) (enter value)
794

Entry O=C(NCCCc1ccccc1)Nc1ccc(Cl)cc1 , system Cannabinoid receptor 1 (Homo sapiens): what IC50 was measured?
3980

Fill in the recorded IC50 for this compound, with Cannabinoid receptor 1 (Homo sapiens) as test system: O=C(NCCc1ccccc1)Nc1ccc(Cl)cc1
200

###

Known Activity of a selection of compounds
System tested: Cannabinoid receptor 1 (Homo sapiens)
Measurement protocol: Agonist activity at human CB1 receptor expressed in CHO-RD-HGA16 cells overexpressing Galpha16 assessed as stimulation of calcium mobilization measured every 1 sec for 90 secs by Calcium-3 dye based FLIPR assay relative to Emax of CP55940
Assay type: functional, cell-based
Cond: time 90.0 sec

Sample answers from the record:
>  <Smiles structure>
CN(C)c1ccc(CCNC(=O)Nc2ccc(Cl)cc2)cc1

>  <Readout type>
Activity

>  <Observed>
< 30%

$$$$
>  <Smiles structure>
O=C(NCCN1CCCC1)Nc1ccc(Cl)cc1

>  <Readout type>
Activity

>  <Observed>
< 30%

$$$$
>  <Smiles structure>
O=C(NCC(F)(F)c1ccccc1)Nc1ccc(Cl)cc1

>  <Readout type>
Activity

>  <Observed>
< 30%

$$$$
>  <Smiles structure>
O=C(NCCc1ccncc1)Nc1ccc(Cl)cc1

>  <Readout type>
Activity

>  <Observed>
< 30%

$$$$
>  <Smiles structure>
O=C(NCCc1ccc(N2CCCC2)cc1)Nc1ccc(Cl)cc1

>  <Readout type>
Activity

>  <Observed>
< 30%

$$$$
>  <Smiles structure>
O=C(NCCc1ccsc1)Nc1ccc(Cl)cc1

>  <Readout type>
Activity

>  <Observed>
< 30%

$$$$
>  <Smiles structure>
O=C(NCCCc1ccccc1)Nc1ccc(Cl)cc1

>  <Readout type>
Activity

>  <Observed>
< 30%

$$$$
>  <Smiles structure>
O=C(Nc1ccc(Cl)cc1)NC1(Cc2ccccc2)CC1

>  <Readout type>
Activity

>  <Observed>
< 30%

$$$$

Requested read-out: Activity. Entry: O=C(Nc1ccc(Cl)cc1)Nc1cccc(-c2cccc(N3CCCC3)n2)c1
< 30%

Can you share its Activity? I mean this compound: CC(C)(CNC(=O)Nc1ccc(Cl)cc1)c1ccccc1
< 30%

Activity for O=C(NCC1(c2ccccc2)CC1)Nc1ccc(Cl)cc1 ?
< 30%

Need Activity of Cc1ccc(CCNC(=O)Nc2ccc(Cl)cc2)o1 , thanks.
< 30%

Need Activity of CN1CCN(CCNC(=O)Nc2ccc(Cl)cc2)CC1 , thanks.
< 30%
